molecular target: KRAS G12A (Homo sapiens, UniProt P01116, G12A); construct: 4 nM KRAS; aa1-188 containing the G12V, G12C, G12A or G12S amino acid substitution; assay: HTRF nucleotide exchange assay (NEA), KRAS G12A
Sequence (P01116 1-188 isoform P01116-2 G12A): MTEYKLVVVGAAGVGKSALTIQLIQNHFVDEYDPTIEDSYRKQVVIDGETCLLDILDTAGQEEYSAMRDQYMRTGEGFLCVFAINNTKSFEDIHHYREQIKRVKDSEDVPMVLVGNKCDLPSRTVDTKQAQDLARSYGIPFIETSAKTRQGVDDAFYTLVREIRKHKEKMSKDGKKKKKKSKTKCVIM
pIC50: −log10 of the molar value.
Attribute Measured: pIC50

> print(dat)
                                   molecule                                       tgt  attribute.measured    data.value
1  O=C1CCN(c2nc(OCC34CCCN3CCC4)nc3c(F)c(-c4cc(O)cc5ccccc45)ncc23)CCN1 [Example 13]  KRAS G12A (Homo sapiens, UniProt P01116, G12A)               pIC50  5.00 to 7.00

Hey, can you go through the list below and give me pIC50 for every item?
1. O=S1(=O)CCN(c2nc(OCC34CCCN3CCC4)nc3c(F)c(-c4cc(O)cc5ccccc45)ncc23)CC1 [Example 22]
2. CC1COCCN(c2nc(OCC34CCCN3CCC4)nc3c(F)c(-c4cc(O)cc5ccccc45)ncc23)C1 (stereo not shown) [Example 19]
3. Oc1cc(-c2ncc3c(N4CCCC(O)CC4)nc(OCC45CCCN4CCC5)nc3c2F)c2ccccc2c1 (stereo not shown) [Example 70]

## Output
1: 5.00 to 7.00; 2: 7.00 to 8.00; 3: 7.00 to 8.00
